Ki by entry:
# testedTarget: human PDE10A2 (Homo sapiens (Human), UniProt Q9Y233)
# Sequence (Q9Y233 267-1055): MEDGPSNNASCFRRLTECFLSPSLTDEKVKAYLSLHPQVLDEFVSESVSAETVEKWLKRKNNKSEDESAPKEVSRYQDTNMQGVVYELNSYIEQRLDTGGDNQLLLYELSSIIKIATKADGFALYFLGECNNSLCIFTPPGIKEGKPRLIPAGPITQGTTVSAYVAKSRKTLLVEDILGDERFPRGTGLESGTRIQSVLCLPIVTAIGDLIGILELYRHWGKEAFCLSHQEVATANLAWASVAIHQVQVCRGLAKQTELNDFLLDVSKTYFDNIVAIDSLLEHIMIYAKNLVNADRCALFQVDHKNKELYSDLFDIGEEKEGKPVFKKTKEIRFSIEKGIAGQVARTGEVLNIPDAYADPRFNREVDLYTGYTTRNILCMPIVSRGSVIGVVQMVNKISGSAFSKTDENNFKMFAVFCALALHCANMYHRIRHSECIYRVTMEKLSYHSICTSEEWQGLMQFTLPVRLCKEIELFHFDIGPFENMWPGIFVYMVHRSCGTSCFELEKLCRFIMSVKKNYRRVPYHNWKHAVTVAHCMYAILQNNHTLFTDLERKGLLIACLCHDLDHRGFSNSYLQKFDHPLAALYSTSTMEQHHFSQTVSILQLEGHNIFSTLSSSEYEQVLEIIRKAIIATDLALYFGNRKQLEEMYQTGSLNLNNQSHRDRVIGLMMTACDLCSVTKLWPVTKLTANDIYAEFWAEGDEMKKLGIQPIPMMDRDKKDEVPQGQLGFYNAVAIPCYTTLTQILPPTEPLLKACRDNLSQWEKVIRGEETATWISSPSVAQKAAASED
measuredParameter: Ki

>>> endpointvalue("COCc1nc(C)nn1-c1cc(N2CC(c3nc4ccccc4n3C)C2)nc(C(F)(F)F)n1")
"0.94 nM"
>>> endpointvalue("Cc1nc(-c2ncco2)cc(N2CC(c3nc4ccccc4n3C)C2)n1")
"20 nM"
>>> endpointvalue("Cc1nc(-c2ccccc2OC(F)F)cc(N2CC(c3nc4ccccc4n3C)C2)n1")
"22 nM"
>>> endpointvalue("Cc1nc(N2CC(c3nc4ccccc4n3C)C2)cc(-n2nc(C)nc2-c2ccccc2F)n1")
"1.2 nM"

----------
# testedTarget: human PDE10A2 (Homo sapiens (Human), UniProt Q9Y233)
Ki by entry:
measuredParameter: Ki (nM)

>>> endpointvalue("COc1nc(N2CC(c3nc4ccccc4n3C)C2)cc(-n2nc(C)nc2C)n1 [Example 62]")
0.76
>>> endpointvalue("Cc1nc(C)n(-c2cc(N3CC(c4nc5ccccc5n4C)C3)nc(OC(C)C)n2)n1 [Example 70]")
0.38
>>> endpointvalue("CCc1cnn(-c2cc(N3CC(c4nc5ccccc5n4C)C3)nc(C)n2)c1 [Example 15]")
3.4
>>> endpointvalue("COc1ncccc1-c1cc(N2CC(c3nc4ccccc4n3C)C2)nc(C)n1 [Example 82]")
27
>>> endpointvalue("Cc1nc(N2CC(c3nc4ccccc4n3C)C2)cc(-n2cc(C#N)cn2)n1 [Example 17]")
4.2
>>> endpointvalue("Cc1cnn(-c2cc(N3CC(c4nc5ccccc5n4C)C3)nc(C3CC3)n2)n1 [Example 33]")
0.54
>>> endpointvalue("Cc1nc(N2CC(c3nc4ccccc4n3C)C2)cc(-n2cc(C(F)(F)F)cn2)n1 [Example 16]")
2.7
>>> endpointvalue("COc1nc(N2CC(c3nc4ccccc4n3C)C2)cc(-n2nc(C)nc2C2CC2)n1 [Example 63]")
1.8
>>> endpointvalue("Cc1nc(C)n(-c2cc(N3CC(c4nc5ccccc5n4C)C3)nc(OCc3nccs3)n2)n1 [Example 72]")
0.28
>>> endpointvalue("COC(=O)c1nc(N2CC(c3nc4ccccc4n3C)C2)cc(-n2nc(C)nc2C)n1 [Example 24]")
1.8
>>> endpointvalue("CCCc1nc(C)nn1-c1cc(N2CC(c3nc4ccccc4n3C)C2)nc(C)n1 [Example 38]")
0.41
>>> endpointvalue("Cc1nc(N2CC(c3nc4ccccc4n3CCC#N)C2)cc(-n2nc(C)nc2C)n1 [Example 119]")
5
>>> endpointvalue("Cc1noc(COc2nc(N3CC(c4nc5ccccc5n4C)C3)cc(-n3nc(C)nc3C)n2)n1 [Example 75]")
0.7
>>> endpointvalue("Cc1nc(N2CC(c3nc4ccccc4n3CCCC#N)C2)cc(-n2nc(C)nc2C)n1 [Example 121]")
9.5
>>> endpointvalue("Cc1nc(N2CC(c3nc4ccccc4n3C)C2)cc(-n2nc(C)nc2C2CC2)n1 [Example 36]")
4.5
>>> endpointvalue("Cc1nc(N2CC(c3nc4cccc(F)c4n3C)C2)cc(-n2nc(C)nc2C)n1 [Example 123]")
7.1
>>> endpointvalue("CCOC(=O)Cc1nc(N2CC(c3nc4ccccc4n3C)C2)cc(-n2nc(C)nc2C)n1 [Example 26]")
3.1
>>> endpointvalue("CC(=O)c1ccc(-c2cc(N3CC(c4nc5ccccc5n4C)C3)nc(C)n2)nc1 [Example 102]")
9
>>> endpointvalue("Cc1nc(N2CC(c3nc4ccccc4n3C)C2)cc(-n2nc(C)nc2-c2cccnc2)n1 [Example 52]")
7.5
>>> endpointvalue("Cc1nc(N2CC(c3nc4ccccc4n3C)C2)cc(-n2cc(CO)cn2)n1 [Example 19]")
8.3
>>> endpointvalue("Cc1nc(N2CC(c3nc4cccc(C)c4[nH]3)C2)cc(-n2nc(C)nc2C)n1 [Example 110]")
17
>>> endpointvalue("COc1ccn(-c2cc(N3CC(c4nc5ccccc5n4C)C3)nc(C)n2)n1 [Example 12]")
4.7
>>> endpointvalue("Cc1nc(-c2ccc(Cl)cn2)cc(N2CC(c3nc4ccccc4n3C)C2)n1 [Example 99]")
1.1
>>> endpointvalue("Cc1nc(-c2cccnc2)cc(N2CC(c3nc4ccccc4n3C)C2)n1 [Example 81]")
76
>>> endpointvalue("CCOC(=O)Cc1nc(C)nn1-c1cc(N2CC(c3nc4ccccc4n3C)C2)nc(C)n1 [Example 44]")
2.6
>>> endpointvalue("COc1cccnc1-c1cc(N2CC(c3nc4ccccc4n3C)C2)nc(C)n1 [Example 100]")
41
>>> endpointvalue("Cc1nc(C)n(-c2cc(N3CC(c4nc5ccccc5n4C)C3)nc(-n3cccn3)n2)n1 [Example 76]")
0.61
>>> endpointvalue("Cc1nc(N2CC(c3nc4ccccc4n3C)C2)cc(-n2nc(C)nc2C(C)C)n1 [Example 39]")
3.1
>>> endpointvalue("Cc1cnn(-c2cc(N3CC(c4nc5ccccc5n4C)C3)nc(C)n2)c1 [Example 2]")
0.61
>>> endpointvalue("Cc1nc(N2CC(c3nc4cccc(F)c4[nH]3)C2)cc(-n2nc(C)nc2C)n1 [Example 108]")
19
>>> endpointvalue("Cc1nc(N2CC(c3nc4ccccc4n3C)C2)cc(-n2nc(C)nc2COc2ccccc2)n1 [Example 46]")
1.2
>>> endpointvalue("Cc1nc(N2CC(c3nc4ccccc4n3C)C2)cc(-n2nc(C)nc2C[C@@H](C)O)n1 [Example 41]")
1
>>> endpointvalue("CCn1c(C2CN(c3cc(-n4nc(C)nc4C)nc(C)n3)C2)nc2ccccc21 [Example 114]")
5.9

----------
# testedTarget: human PDE10A2 (Homo sapiens (Human))
measuredParameter: log10 Ki (log10 of the value in nM)

>>> endpointvalue("Cc1ccc(C2CN(c3cc(-n4nc(C)nc4C)nc(C)n3)C2)nc1 [Example 126]")
2.61
>>> endpointvalue("COc1nc(N2CC(c3nc4ccccc4n3C)C2)cc(-n2ncc(C)n2)n1 [Example 34]")
0.15
>>> endpointvalue("Cc1nc(N2CC(c3nc4ccccc4n3C)C2)cc(-n2ccc(C(C)C)n2)n1 [Example 14]")
-0.19
>>> endpointvalue("Cc1ccc(-c2nc(C)nn2-c2cc(N3CC(c4nc5ccccc5n4C)C3)nc(C)n2)cn1 [Example 55]")
1.00
>>> endpointvalue("Cc1nc(N2CC(c3nc4ccccc4n3C)C2)cc(-n2ccc(C(F)(F)F)n2)n1 [Example 11]")
-0.12
>>> endpointvalue("COc1nc(-c2ccc(C)cn2)cc(N2CC(c3nc4ccccc4n3C)C2)n1 [Example 96]")
0.11
>>> endpointvalue("Cc1nc(C)n(-c2cc(N3CC(c4nc5ccccc5n4C)C3)nc(-n3ccnc3C)n2)n1 [Example 77]")
-0.59
>>> endpointvalue("Cc1cn(-c2cc(N3CC(c4nc5ccccc5n4C)C3)nc(C)n2)nn1 [Example 29]")
0.49

----------
# testedTarget: human PDE10A2 (Homo sapiens (Human))
# assayInfo: PDE10 fluorescence polarization (IMAP FP) inhibition assay
# Format: biochemical
# testParameters: apparent inhibition constant, FAM-labeled cAMP substrate 50 nM, room temperature
pKi: −log10 of the molar value.
pKi by entry:
measuredParameter: pKi

>>> endpointvalue("Cc1nc(C)n(-c2cc(N3CC(c4nc5ccccc5n4C)C3)nc(C(F)(F)F)n2)n1 [Example 60]")
8.96
>>> endpointvalue("Cc1nc(-c2ccccn2)cc(N2CC(c3nc4ccccc4n3C)C2)n1 [Example 95]")
8.74
>>> endpointvalue("CC(=O)c1ccnc(-c2cc(N3CC(c4nc5ccccc5n4C)C3)nc(C)n2)c1 [Example 101]")
7.51
>>> endpointvalue("Cc1nc(-c2cccc(C(F)(F)F)n2)cc(N2CC(c3nc4ccccc4n3C)C2)n1 [Example 87]")
8.89
>>> endpointvalue("Cc1cc(C)n(-c2cc(N3CC(c4nc5ccccc5n4C)C3)nc(C)n2)n1 [Example 7]")
8.07
>>> endpointvalue("Cc1cnn(-c2cc(N3CC(c4nc5ccccc5n4C)C3)nc(C)n2)n1 [Example 28]")
8.77
>>> endpointvalue("Cc1nc(N2CC(c3nc4ccccc4n3C)C2)cc(-n2nc(C(F)(F)F)nc2C)n1 [Example 21]")
8.15
>>> endpointvalue("Cc1nc(-c2ccccc2)cc(N2CC(c3nc4ccccc4n3C)C2)n1 [Example 88]")
7.20
>>> endpointvalue("Cc1nc(N2CC(c3nc4ccccc4n3C)C2)cc(-n2nc(C)nc2-c2ccc(C#N)cc2)n1 [Example 54]")
7.80
>>> endpointvalue("COCc1nc(C)nn1-c1cc(N2CC(c3nc4ccccc4n3C)C2)nc(C)n1 [Example 59]")
8.82
>>> endpointvalue("Cc1nc(N2CC(c3nc4ccccc4n3C)C2)cc(-n2nc(C)nc2-c2ccccc2)n1 [Example 49]")
8.17

----------
Dear all, this message contains Ki results, target or system human PDE10A2 (Homo sapiens (Human)).
measuredParameter: Ki (nM)

>>> endpointvalue("COc1cnn(-c2cc(N3CC(c4nc5ccccc5n4C)C3)nc(C)n2)c1")
3.2
>>> endpointvalue("Cc1ccc(-c2cc(N3CC(c4nc5ccccc5n4C)C3)nc(C(F)(F)F)n2)nc1")
0.9
>>> endpointvalue("Cc1nc(C)n(-c2cc(N3CC(c4nc5ccccc5n4C)C3)nc(OCc3ccon3)n2)n1")
0.49
>>> endpointvalue("Cc1cn(-c2cc(N3CC(c4nc5ccccc5n4C)C3)nc(C3CC3)n2)nn1")
1.1
